- Assay Method Text: basal RPMI8226 mitochondrial membrane potential changes, profiling panel, cell-based, JC-1 fluorescence, 24 h, 100 nL compound (AID 1169); further: test concentration not given here
- Measurement Setup: RPMI8226 myeloma, JC-1 mitochondrial potential fluorescence, higher = more signal
Label rule met when z-score is at or above 0.01; anything below gets rule not met.

Field: example entries. Status: answers known.
Molecule	Classification
CCC(CC)C(O)C1C=CC2C(=O)N(C)C(=O)C2N1Nc1ccccc1 (stereo not drawn)	rule not met
COCCCN1C(=O)[C@@]2(Cc3ccccc31)c1ccccc1C(=O)N(Cc1ccccc1C(F)(F)F)[C@H]2c1ccc(CO)cc1	rule met
COc1cc2c(cc1OC)CN(C(=O)[C@@H]1[C@H]3C(=O)O[C@H](c4ccccc4)[C@H](c4ccccc4)N3[C@H](c3ccc(O)cc3)[C@@]13C(=O)Nc1ccc(C#CC4(O)CCCCCC4)cc13)CC2	rule not met
COc1ccc(NN2C(C(O)c3ccc([N+](=O)[O-])cc3)C=CC3C(=O)N(C4CCCCC4)C(=O)C32)cc1 (stereo not drawn)	rule met
CN1C(=O)C2C=CC(C(O)c3ccccc3)N(Nc3ccccc3)C2C1=O (stereo not drawn)	rule met

Task item: Does z-score meet or surpass 0.01 for C=CC[C@@]1(C(N)=O)N=C(c2ccc(OCCCO)cc2)O[C@@H]1c1ccccc1CN=[N+]=[N-] ?
Reply: rule not met

Task item: Another molecule: C=CC[C@]12N=C(c3ccc(OCCCO)cc3)O[C@H]1c1ccccc1N(Cc1ccccc1)C2=O
Reply: rule not met

###

- Test system: Inhibin beta A chain (activin A)
- Assay Method Text: INHBA (activin A) binders on microarrays, primary screen, biochemical, small-molecule microarray, 635 nm fluorescence scan (AID 1107);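 further: mouse activin A protein probed at 4.33 µg/mL on printed slides; score merges bound-protein fluorescence near 667 nm with spot signal-to-noise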
- Measurement Setup: small-molecule microarray binding, higher = more signal
Label TRUE when composite z-score is at or above 0.4; anything below gets FALSE.

Structure Smiles	Classification
CCCCC(=C=CC[C@@H](O)c1ccccc1OCCO)CCO	TRUE
COc1ccc(C(=O)Nc2ccc(CN3C(=O)[C@@]4(O[C@@H](CCn5cc([C@H](O)c6ccccc6)nn5)[C@H]([Si](C)(C)c5ccc(OC)cc5)[C@H]4C)c4ccccc43)cc2)cc1	TRUE
COc1cc2c(cc1OC)CN(C(=O)[C@H]1[C@@H]3C(=O)O[C@@H](c4ccccc4)[C@@H](c4ccccc4)N3[C@@H](c3ccc(O)cc3)[C@]13C(=O)Nc1ccc(C#CC4=CCCCC4)cc13)CC2	FALSE
C=CCNC(=O)[C@@H]1[C@H]2C(=O)O[C@H](c3ccccc3)[C@H](c3ccccc3)N2[C@H](c2ccccc2OCCO)[C@@]12C(=O)N(C(=O)OCCOC)c1ccc(C#CCNC(N)=O)cc12	FALSE

Okay, next one:
Task item: Does composite z-score meet or surpass 0.4 for COC(=O)[C@@]1(Cc2ccc(F)cc2)[C@H]2c3cc(C(=O)N4CCCC4)n(Cc4cc(C)n(C)n4)c3C[C@H]2CN1C(=O)c1ccccc1 ?
Reply: TRUE

###

- System Tested: Left-right determination factor 2 (Homo sapiens)
- Assay Method Text: LEFTY2 binders on small-molecule microarrays, primary screen, biochemical, small-molecule microarray, 635 nm fluorescence scan (AID 1110)
- Measurement Setup: LEFTY2 binding, higher = more signal
Entries and their composite z-score
Lab note: write the figure by itself, no unit.

Worked set:
>>> df
                                   molecule  numeric_value
0  CC(=O)NCCCC[C@@H]1NC(=O)[C@@H]2C[C@H](C(=O)NCCCCCCNC(=O)CS)[C@H](c3cccc(OCCO)c3)N2C1=O          0.221
1  COc1ccc(C(=O)O[C@H]2CC[C@]3(C)C4=C(CCC3C2(C)C)[C@]2(C)CC[C@H]([C@H](C)CCCC(C)C)[C@@]2(C)CC4)cc1 (some centres undefined)          0.567
2  O=C1O[C@H](c2ccccc2)[C@H](c2ccccc2)N2[C@H]1[C@@H](C(=O)NC[C@H](O)c1ccccc1)[C@]1(C(=O)Nc3ccccc31)[C@H]2c1ccc(OCCO)cc1          0.119

Here is another molecule to look at.
Task item: Reported composite z-score, molecule CC1(C)[C@@H]2CC(C(O)C3C=CC4C(=O)N(c5ccccc5)C(=O)C4N3Nc3ccccc3)=C[C@H]1C2 (some centres undefined) : ____
Reply: -0.158
